Origin of the recorded values: patent US5631401A

Target: Rat liver microsomal squalene synthase (Rattus norvegicus)
Construct: Rat liver microsomes, the source of enzyme, were prepared; from tissue; host or cells: rat liver microsomes
Test: In vitro inhibition of squalene synthase (rat liver microsomes, 3H-farnesyl diphosphate)
Type: biochemical
Details: 1 μM; compared to controls with no test compound
# inhibition at 1 µM values compiled below

compound	measurement target	inhibition at 1 µM (%)
CCCN(Cc1ccc(Sc2ccccc2)cc1)C(=O)C1C(C(=O)O)C(C(=O)N(CCC)Cc2ccc(Sc3ccccc3)cc2)C1C(=O)O (stereo not shown)	Rat liver microsomal squalene synthase (Rattus norvegicus)	33
CCN(Cc1ccc(Oc2ccccc2)cc1)C(=O)[C@H]1[C@H](C(=O)O)[C@H](C(=O)N(CC)Cc2ccc(Oc3ccccc3)cc2)[C@H]1C(=O)O	Rat liver microsomal squalene synthase (Rattus norvegicus)	52
O=C(O)[C@H]1[C@H](C(=O)N(CCCc2ccccc2)Cc2ccc(Oc3ccccc3)cc2)[C@H](C(=O)O)[C@H]1C(=O)N(CCCc1ccccc1)Cc1ccc(Oc2ccccc2)cc1	Rat liver microsomal squalene synthase (Rattus norvegicus)	54
O=C(O)[C@H]1[C@H](C(=O)N(CCCCc2ccccc2)Cc2ccc(Oc3ccccc3)cc2)[C@H](C(=O)O)[C@H]1C(=O)N(CCCCc1ccccc1)Cc1ccc(Oc2ccccc2)cc1	Rat liver microsomal squalene synthase (Rattus norvegicus)	42
CCCN(Cc1ccc(Oc2cccc(C)c2)cc1)C(=O)C1C(C(=O)O)C(C(=O)N(CCC)Cc2ccc(Oc3cccc(C)c3)cc2)C1C(=O)O (stereo not shown)	Rat liver microsomal squalene synthase (Rattus norvegicus)	37
O=C(O)[C@H]1[C@H](C(=O)N(Cc2ccc(Oc3ccccc3)cc2)C2CC2)[C@H](C(=O)O)[C@H]1C(=O)N(Cc1ccc(Oc2ccccc2)cc1)C1CC1	Rat liver microsomal squalene synthase (Rattus norvegicus)	23
COC(=O)CN(Cc1ccc(Oc2ccccc2)cc1)C(=O)[C@H]1[C@H](C(=O)O)[C@H](C(=O)N(CC(=O)OC)Cc2ccc(Oc3ccccc3)cc2)[C@H]1C(=O)O	Rat liver microsomal squalene synthase (Rattus norvegicus)	36
O=C(O)[C@H]1[C@H](C(=O)N(Cc2ccc(Oc3ccccc3)cc2)C2CCCC2)[C@H](C(=O)O)[C@H]1C(=O)N(Cc1ccc(Oc2ccccc2)cc1)C1CCCC1	Rat liver microsomal squalene synthase (Rattus norvegicus)	49
CC(C)CN(Cc1ccc(Oc2ccccc2)cc1)C(=O)[C@H]1[C@H](C(=O)O)[C@H](C(=O)N(Cc2ccc(Oc3ccccc3)cc2)CC(C)C)[C@H]1C(=O)O	Rat liver microsomal squalene synthase (Rattus norvegicus)	24
COc1ccc(CN(Cc2ccc(Oc3ccccc3)cc2)C(=O)[C@H]2[C@H](C(=O)O)[C@H](C(=O)N(Cc3ccc(OC)cc3)Cc3ccc(Oc4ccccc4)cc3)[C@H]2C(=O)O)cc1	Rat liver microsomal squalene synthase (Rattus norvegicus)	47

---

Target: Rat liver microsomal squalene synthase (Rattus norvegicus, UniProt Q02769)
Construct: Rat liver microsomes, the source of enzyme, were prepared; from tissue; host or cells: rat liver microsomes
Sequence (Q02769 whole entry): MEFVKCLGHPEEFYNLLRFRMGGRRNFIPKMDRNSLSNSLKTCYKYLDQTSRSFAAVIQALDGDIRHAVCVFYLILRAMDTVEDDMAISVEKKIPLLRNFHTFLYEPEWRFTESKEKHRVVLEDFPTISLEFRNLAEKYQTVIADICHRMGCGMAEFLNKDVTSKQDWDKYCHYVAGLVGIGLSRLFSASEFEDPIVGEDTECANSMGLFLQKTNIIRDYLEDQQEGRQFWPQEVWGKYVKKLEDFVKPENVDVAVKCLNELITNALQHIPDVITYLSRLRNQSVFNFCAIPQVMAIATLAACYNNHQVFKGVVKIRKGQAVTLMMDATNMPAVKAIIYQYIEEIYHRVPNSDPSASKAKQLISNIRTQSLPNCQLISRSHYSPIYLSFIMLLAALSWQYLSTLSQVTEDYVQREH
Assay: In vitro inhibition of squalene synthase (rat liver microsomes, 3H-farnesyl diphosphate)
Type: biochemical
Settings: 10 μM (footnote *); read-out: % Inhibition at 10 μM (squalene synthase, values marked *)
Description: In vitro inhibition of squalene synthase may be measured by the following procedure. Rat liver microsomal squalene synthase activity was measured using radioactive farnesyl diphosphate as a substrate and quantitating squalene synthesis by counting the radioactive squalene formed. Rat liver microsomes, the source of enzyme, were prepared according to the method of Gillies, P. J., et al., Exp. Molec. Pathol. […]
reported endpoint: inhibition at 10 µM (%)

compound smiles	measurement target	observed result
C=CCN(Cc1ccc(Oc2ccccc2)cc1)C(=O)[C@H]1[C@H](C(=O)O)[C@H](C(=O)N(CC=C)Cc2ccc(Oc3ccccc3)cc2)[C@H]1C(=O)O	Rat liver microsomal squalene synthase (Rattus norvegicus, UniProt Q02769)	63
CC(C)=CCC/C(C)=C/CCN(C)C(=O)[C@H]1[C@H](C(=O)O)[C@H](C(=O)N(C)CC/C=C(\C)CCC=C(C)C)[C@H]1C(=O)O	Rat liver microsomal squalene synthase (Rattus norvegicus, UniProt Q02769)	40
CN(Cc1cccc(Oc2ccc(F)cc2)c1)C(=O)[C@H]1[C@H](C(=O)O)[C@H](C(=O)N(C)Cc2cccc(Oc3ccc(F)cc3)c2)[C@H]1C(=O)O	Rat liver microsomal squalene synthase (Rattus norvegicus, UniProt Q02769)	47
O=C(O)[C@H]1[C@H](C(=O)N(Cc2ccc(Oc3ccccc3)cc2)Cc2ccc(Oc3ccccc3)cc2)[C@H](C(=O)O)[C@H]1C(=O)N(Cc1ccc(Oc2ccccc2)cc1)Cc1ccc(Oc2ccccc2)cc1	Rat liver microsomal squalene synthase (Rattus norvegicus, UniProt Q02769)	41
CCCCCN(Cc1ccc(Oc2ccccc2)cc1)C(=O)[C@H]1[C@H](C(=O)O)[C@H](C(=O)N(CCCCC)Cc2ccc(Oc3ccccc3)cc2)[C@H]1C(=O)O	Rat liver microsomal squalene synthase (Rattus norvegicus, UniProt Q02769)	50
